tested-on: T1, PTPN13_4, Q12923
T1 sequence (Q12923 1783-1878, limits assumed, looked up): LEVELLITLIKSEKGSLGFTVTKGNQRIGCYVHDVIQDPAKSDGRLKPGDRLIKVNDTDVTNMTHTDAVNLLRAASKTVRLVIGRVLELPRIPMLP
test-name: holdup assay
Parameters: key: below the threshold = too weak to quantify, mostly under pKd 3.1 to 4
condition-summary: plain residues with an end cap or a label only (N-terminal biotin on a linker: ttds)
measured-attribute: pKd

{"binder": "SSIDLWETAL [SLC15A5, A6NIM6]", "reading": "below the threshold"}
{"binder": "PSRDRKETSI [RALBP1, Q15311]", "reading": "below the threshold"}
{"binder": "SHSSKGETAV [FZD7, O75084]", "reading": "below the threshold"}
